assay-info: Oral pharmacokinetics in Balb/c mice, single dose 20 or 100 mg/kg
recorded-conditions: female, Balb/c, mouse, plasma, po, 20 mg/kg
outcome-measure: Cmax
Don't forget the unit after the number, please.

Determine its reported Cmax: CC[C@H]1OC(=O)[C@@](C)(F)C(=O)[C@H](C)[C@@H](O[C@@H]2O[C@H](C)C[C@H](N(C)C)[C@H]2O)[C@](C)(OC)C[C@@H](C)C(=O)[C@H](C)[C@H]2N(CCCCn3cc(-c4cccc(N)c4)nn3)C(=O)O[C@]12C [Form II, solithromycin]
8800 ng/mL

* * *

assay-info: Oral pharmacokinetics in Balb/c mice, single dose 20 or 100 mg/kg
recorded-conditions: male, Balb/c, mouse, plasma, po, 100 mg/kg
outcome-measure: concentration at 0.25 h (ng/mL)
Report the value in ng/mL with no unit label.

Determine its reported concentration at 0.25 h: CC[C@H]1OC(=O)[C@@](C)(F)C(=O)[C@H](C)[C@@H](O[C@@H]2O[C@H](C)C[C@H](N(C)C)[C@H]2O)[C@](C)(OC)C[C@@H](C)C(=O)[C@H](C)[C@H]2N(CCCCn3cc(-c4cccc(N)c4)nn3)C(=O)O[C@]12C [Form II, solithromycin]
6800

* * *

assay-info: Oral pharmacokinetics in Balb/c mice, single dose 20 or 100 mg/kg
recorded-conditions: male, Balb/c, mouse, plasma, po, 20 mg/kg
outcome-measure: concentration at 1 h (ng/mL)
Report the value in ng/mL with no unit label.

Determine its reported concentration at 1 h: CC[C@H]1OC(=O)[C@@](C)(F)C(=O)[C@H](C)[C@@H](O[C@@H]2O[C@H](C)C[C@H](N(C)C)[C@H]2O)[C@](C)(OC)C[C@@H](C)C(=O)[C@H](C)[C@H]2N(CCCCn3cc(-c4cccc(N)c4)nn3)C(=O)O[C@]12C [Form II, solithromycin]
5900

* * *

assay-info: in vivo
recorded-conditions: female, Balb/c, mouse, po, 20 mg/kg, t½
outcome-measure: half-life
Don't forget the unit after the number, please.

Determine its reported half-life: CC[C@H]1OC(=O)[C@@](C)(F)C(=O)[C@H](C)[C@@H](O[C@@H]2O[C@H](C)C[C@H](N(C)C)[C@H]2O)[C@](C)(OC)C[C@@H](C)C(=O)[C@H](C)[C@H]2N(CCCCn3cc(-c4cccc(N)c4)nn3)C(=O)O[C@]12C [Form I, solithromycin]
1.91 h

Values compiled from patent US8759500B2.
